Listed here are compounds together with their documented zone of inhibition at 30 µg/mL.
Tested on: Staphylococcus aureus
method-notes: Antibacterial activity against Staphylococcus aureus RCMB 000108 assessed as zone of inhibition at 30 ug/ml
Assay type: functional
experimental-context: read-out: IZ

The examples below pair each entry with its known result.
compound	zone of inhibition at 30 µg/mL
Nc1nn2c(-c3cccs3)cc(-c3cccs3)nc2c1/N=N/c1ccccc1	15.3 mm
Nc1nn2c(-c3ccco3)cc(-c3ccco3)nc2c1/N=N/c1ccccc1	16.7 mm
CN[C@@H]1[C@H](O[C@H]2[C@H](O[C@H]3[C@H](O)[C@@H](O)[C@H](N=C(N)N)[C@@H](O)[C@@H]3N=C(N)N)O[C@@H](C)[C@]2(O)C=O)O[C@@H](CO)[C@H](O)[C@H]1O [STREPTOMYCIN]	28.1 mm
CC1(C)S[C@@H]2[C@H](NC(=O)Cc3ccccc3)C(=O)N2[C@H]1C(=O)O [PENICILLIN G]	30.1 mm

Consider the record given below.
Kindly note: Staphylococcus aureus, Cc1ccc(/N=N/c2c(N)nn3c(-c4ccco4)cc(-c4ccco4)nc23)cc1 , zone of inhibition at 30 µg/mL value reported: 22.2 mm
